Value source: the nanobody polyreactivity screen of Harvey et al. (2022)

assay: yeast display, Sf9 membrane polyspecificity reagent, FACS + sequencing; frameworks hold sequencing errors
READOUT_KIND: polyreactivity (PSR sort gate)

MACROMOLECULE_SEQUENCE: QVQLVESGGGLVQAGGSLRLSCAASGFTFYSYAMGWYRQAPGKEREFVAAISGSGTITFYADSVKGRFTISRDNAKNTVYLQMNSLKPEDTAVYYCNADKYYRWSSPRYDYWGQGTQVTVSS
RESULT: low polyreactivity

MACROMOLECULE_SEQUENCE: QLQLVESGGGLDQAGGSLRLSCAASRYTMGWYRQAPGKEMELVPAITGGGSTNYADSVKGRFTISRDNAKNTVYLHMNSLKPEDTAVYYCAVDYAVSYAGWVLRYDYWGQGTQVTVSS
RESULT: low polyreactivity

MACROMOLECULE_SEQUENCE: QVQHVESGGGLVQAGGSLRLSCAASGRTFEVFAMGWYRQAPRKERELVATITYSGGITYYADSVKGRFTISRDKAKNTVYLQMNSLKPEDTAVYYPIGVGGDYDYCGQGTQVTVSS
RESULT: low polyreactivity

---

assay: yeast display, Sf9 membrane polyspecificity reagent, FACS + sequencing; frameworks hold sequencing errors
READOUT_KIND: polyreactivity (PSR sort gate)

MACROMOLECULE_SEQUENCE: QVQLVESGGGLVQAGGSLRLSCAASGSTFTYNTMGWYRQAPGKERELVAGITKSGGSTYYADSVKGRFTISRDTAKNTVYLQMNSLKPEDTAVYYCATSTSRRYGSRHNYWGQGTQVTVSS
READOUT_KIND: polyreactivity (PSR sort gate)
RESULT: high polyreactivity
--
MACROMOLECULE_SEQUENCE: QVQLVESGGGLVQAGGSLRLSCAASGFTFPDYAMGWYRQAPGKERELVAGISSTGDSTYYADSVKGRITISRDNAKNTVYLQMNSLKPEDTAVYYCNAAQERPIIILFSKYDYCGQGTQVTVSS
READOUT_KIND: polyreactivity (PSR sort gate)
RESULT: low polyreactivity
--
MACROMOLECULE_SEQUENCE: QVQLVESGGGLVQAGGSLRLSCAASGGIVDSNAMGWYRQAPGKERELVAAISDSGGSTYYADSVKGRFTISRDNAKNTVYLQMNSLKPEDTAVYYCAADSDYHFVNYRFGMDYWGQGTQVTVSS
READOUT_KIND: polyreactivity (PSR sort gate)
RESULT: low polyreactivity
--
MACROMOLECULE_SEQUENCE: QVQLVESGGGLVQAGGSLRLSCAASGITLPVYGMGWYRQAPGKERELVAVIDIVGITNYADSVKGRFTISRDNAKNTVYLQMNSLKPEDTAVYYCAKRYVDLADGGEYYYWGQGTQVTVSS
READOUT_KIND: polyreactivity (PSR sort gate)
RESULT: low polyreactivity
--
MACROMOLECULE_SEQUENCE: QVQLVESGGGLVQAGGSLRLSCAASGIIFASNAMGWYRQTPGKERELVAAISGSGGRTYYADSVKGRFTISRDNAKNTVYLQMNSLKPDDTAVYYGAAARANNYDYWGQGTQVTVSS
READOUT_KIND: polyreactivity (PSR sort gate)
RESULT: high polyreactivity

---

assay: yeast display, Sf9 membrane polyspecificity reagent, FACS + sequencing; frameworks hold sequencing errors

MACROMOLECULE_SEQUENCE: QVQLEESGGGLVQAGGSLRLSCAASGFIFPHYTMGWYRQAPGKERELVAAISSSGGSTYYADSVKGRFTISRDNAKKTVYLQMNSLKPEDTAVYYCPGPLPYYGQYDYWGQGTQVTVSS
polyreactivity (PSR sort gate): low polyreactivity
--
MACROMOLECULE_SEQUENCE: QVQLVESGGGLVQEGGSLRLSCAASGLIFRYYGMGWYRQAPGKERELVAAIRWSAGSTYYADSVKGRFTNSRDYAKITVYFQMNSLKPEDTAVYYCAVAIGYVYKPYYYWGQGTQVTVSS
polyreactivity (PSR sort gate): high polyreactivity
--
MACROMOLECULE_SEQUENCE: QVQLVESGGGLVQAGGSLRLSCAASGRIFLLNAMGWYRQAPGKERELVADISFNGGSKYYADSVKGRFTISRDNAKNTVYLQMNSLKPEDTAVYYCNADAHNLWFRYYYWGQGTQVTVSS
polyreactivity (PSR sort gate): low polyreactivity
--
MACROMOLECULE_SEQUENCE: QVQLVESGGGLVQAGGSLRLSCAASESIFVRNAMGWYRQAPGKERELVASITYSGSRTYYADSVKGRFTISRDNAKNTVYLQMNRLKPEDTAVYYCAKVRVLVDKWSTFYEYYYWVQGTQVTVSS
polyreactivity (PSR sort gate): low polyreactivity
--
MACROMOLECULE_SEQUENCE: QVQLVESGGGLVQAGGSLRLSCAASGFISKYYAMGRYRQAPGKERELVASISRDGSTSYADSVKGRFTISRDNAKNTVYLQMNSLKPEDTAVYYCAAPSYRTRYYYWGQGTQVTVSS
polyreactivity (PSR sort gate): high polyreactivity
--
MACROMOLECULE_SEQUENCE: QVQLVESGGGLVQAGGSLRLSCAASGRTFSRNAMGWYRQAPGKERELVAAISRSGGSTYYADSVKGRFTISRDNAKNTVYFQLNSLKPEDTAVYYCKADVYSTYYNYNYWGQGTQVTVSS
polyreactivity (PSR sort gate): high polyreactivity
--
MACROMOLECULE_SEQUENCE: QVQLVESGGGLVQAGGSLRLSCAASGRTFRYYAMGWYRQAPGKERELVATSTGSGGSTYYADSVKGRFTISRDNSKNTVYLQMNSLKPEDTAVYYCNARKVRYPYRWYDYWGQGTQVTVSS
polyreactivity (PSR sort gate): high polyreactivity
--
MACROMOLECULE_SEQUENCE: QVQLVESGGGLVQAGGSLRLSCAASGSTFDYYAMGWYRQTPGKERELVAAISWSGGSTYYADSVKGRFTISRDNAKNTVYLQMNSPKPEDTAVYYCATGTYFPRYKYFEGYYWGQGTQVTVSS
polyreactivity (PSR sort gate): high polyreactivity
--
MACROMOLECULE_SEQUENCE: QVQLVESGGGLVQAGGSLRLSCAASGITFYEYAMGWYRQAPGKERELVATITSGGNTNYADSVKGRFTISRDNAKNTVYLQMNSLKPEDTAVYFCATRPYGYSCNRPYDYWGQGTQVTVSS
polyreactivity (PSR sort gate): low polyreactivity
--
MACROMOLECULE_SEQUENCE: QVQLVESGGGLVQAGGSLRLSCAASGFIFQAYAMGWYRQAPGKERELVAAISSSGGSTYYADSVTGRFTISRDNAKNTVYLQMNSLKPEDTAVYYCAALRYVKMLAQAYEYWGQGTQVTVSS
polyreactivity (PSR sort gate): high polyreactivity
--
MACROMOLECULE_SEQUENCE: QVQLVESGGGLVQAGGSLRLSCAASGFIFYHYAIGWYRQEPGKERELVAAISGRGGSTYYADSVKGRFTISRDNAKNSVYLQMNSLKPEDTAVYYCSTDYSRTFDYWGQGTQVTVSS
polyreactivity (PSR sort gate): high polyreactivity

---

assay: yeast display, Sf9 membrane polyspecificity reagent, FACS + sequencing; frameworks hold sequencing errors

MACROMOLECULE_SEQUENCE: QVQLVESGGGLVQAGGSLRLSCAASRFTFSYYAMVWYRKAHVKERELVAAISWRGGTPYADSVKGRFTISRDNAKKTVYLQMNSLKPEDTAVYYCNTAYQVYWRGNYWGQGTQVTVSS
polyreactivity (PSR sort gate): high polyreactivity
//
MACROMOLECULE_SEQUENCE: QVQLVESGGGLVQAGGSLRISCAASGRTFPGYTMGWYRQAPGKERELVAAITRVGTTYYADSVKGRFTISRDNAKNTVYLQMNSLKPEDTAVYYCAAVISQGFIRYYYWGQGTQVTVSS
polyreactivity (PSR sort gate): high polyreactivity

---

experiment: yeast display, Sf9 membrane polyspecificity reagent, FACS + sequencing; frameworks hold sequencing errors

MACROMOLECULE_SEQUENCE: QVQLVESGGGLVQAGGSLRLSCAASGITFWYYAMGWYRQAPGKERELVAAISSSGGRTTYADSVKGRFTISRDNAKNTVYLQMNSLKPEDTAVYYCATTYGDRYVTAYDYWGQGTQVTVSS
polyreactivity (PSR sort gate): high polyreactivity
//
MACROMOLECULE_SEQUENCE: QVQLVESAGGLVQAGGSLRLSCAASGSTFVTNVMGWYRQAPGKERELVAAISYSGGNTYFEDSVKGRFTISRDYAKNTVYLQMNSLKPEDTAVYSCAASYKPFKKMGYWGQGTQVTVSS
polyreactivity (PSR sort gate): high polyreactivity
